molecular target: Cytochrome P450 2C9 (Homo sapiens, UniProt P11712); test: The compounds are incubated at 0, 0.15, 0.5, 1.5, 5, 15 and 50 uM concentration at 37 C, CYP2C9 is pooled in a ratio such that biotransformation of each probe substrate is specific for the CYP450. Substrates (at their Km) are also pooled within the same solution to create an enzyme-substrate stock and test compound is added. The final solvent concentration is 1% DMSO. After equilibration to 37 C, addition of NADPH initiates substrate biotransformation. The incubation is stopped at 10 min by methanol containing internal standard. The quenched samples are centrifuged to precipitate the protein and the supernatants are analyzed by LC-MS/MS to measure metabolite formation. IC50 of test compounds against CYP2C9 is calculated. The assay has been performed by Concept Life Sciences Ltd.; type: ADME
Sequence (P11712 whole entry): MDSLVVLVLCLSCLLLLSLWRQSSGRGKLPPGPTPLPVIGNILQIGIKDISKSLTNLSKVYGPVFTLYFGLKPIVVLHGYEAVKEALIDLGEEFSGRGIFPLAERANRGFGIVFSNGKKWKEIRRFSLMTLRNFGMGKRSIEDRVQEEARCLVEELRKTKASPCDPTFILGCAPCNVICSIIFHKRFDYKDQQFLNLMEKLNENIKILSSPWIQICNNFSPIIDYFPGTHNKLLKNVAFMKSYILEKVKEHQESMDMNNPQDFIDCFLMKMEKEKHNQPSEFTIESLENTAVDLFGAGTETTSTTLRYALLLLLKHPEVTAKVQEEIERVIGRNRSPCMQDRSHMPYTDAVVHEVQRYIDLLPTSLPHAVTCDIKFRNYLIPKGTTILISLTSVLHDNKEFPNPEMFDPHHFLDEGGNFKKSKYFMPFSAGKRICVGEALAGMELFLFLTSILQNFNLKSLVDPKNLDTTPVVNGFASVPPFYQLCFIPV
Reported endpoint: IC50 (µM)

> print(dat)
                                smiles.data  observed.value
1  CC(C)[C@H](Nc1ncnc2[nH]c(-c3cnn(C)c3C#N)cc12)c1ccc2c(n1)OCCO2            5.93
2  CNC(=O)Cn1cc(-c2cc3c(N[C@@H](c4ccc5c(c4)S(=O)(=O)CCC5)C(C)C)ncnc3[nH]2)cn1              29

I = Cn1ncc(-c2cc3c(N[C@@H](c4ccc5c(n4)OCCO5)C(C)(C)C)ncnc3[nH]2)c1C#N
II = CNCc1cc(-c2cc3c(N[C@@H](c4ccc5c(c4)S(=O)(=O)CCC5)C(C)C)ncnc3[nH]2)co1
Exercise: Select one. Lower IC50: I or II State the label of the item chosen.
Key: II

###

Each entry below carries its measured IC50, system: Cytochrome P450 2D6 (Homo sapiens, UniProt P10635).
Sequence (P10635 whole entry): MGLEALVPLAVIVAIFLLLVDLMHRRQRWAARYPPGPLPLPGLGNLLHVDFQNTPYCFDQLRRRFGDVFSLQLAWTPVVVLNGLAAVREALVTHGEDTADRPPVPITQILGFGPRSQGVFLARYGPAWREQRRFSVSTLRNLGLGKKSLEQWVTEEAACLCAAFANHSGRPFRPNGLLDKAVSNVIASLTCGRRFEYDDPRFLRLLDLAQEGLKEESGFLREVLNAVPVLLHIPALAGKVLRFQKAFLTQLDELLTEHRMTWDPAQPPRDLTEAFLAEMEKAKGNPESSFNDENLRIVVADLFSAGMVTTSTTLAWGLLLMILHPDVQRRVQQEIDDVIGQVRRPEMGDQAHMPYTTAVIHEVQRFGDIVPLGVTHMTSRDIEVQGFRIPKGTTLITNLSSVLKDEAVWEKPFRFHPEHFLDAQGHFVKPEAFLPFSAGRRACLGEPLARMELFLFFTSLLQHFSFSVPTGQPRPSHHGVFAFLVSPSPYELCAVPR
Reported endpoint: IC50 (µM)

> print(dat)
                                smiles.data                                    target  observed.value
1  CC(C)[C@@H](Nc1ncnc2[nH]c(-c3cnn(C)c3C#N)cc12)c1ccc2c(n1)OCCO2  Cytochrome P450 2D6 (Homo sapiens, UniProt P10635)            22.7

1 = CC(C)[C@H](Nc1ncnc2[nH]c(-c3cnn(C)c3C#N)cc12)c1ccc2c(n1)OCCO2
2 = CNC(=O)Cn1cc(-c2cc3c(N[C@@H](c4ccc5c(c4)S(=O)(=O)CCC5)C(C)C)ncnc3[nH]2)cn1
3 = CNCc1cc(-c2cc3c(N[C@@H](c4ccc5c(c4)S(=O)(=O)CCC5)C(C)C)ncnc3[nH]2)co1
Exercise: Put the entries in order of IC50, starting with the largest number. Write the labels in rank order as requested.
Key: 2, 1, 3
(2: 48.2 µM, 1: 27.7 µM, 3: 9.03 µM)

###

Molecular target: Cytochrome P450 1A2 (Homo sapiens)
Sequence (P05177 whole entry): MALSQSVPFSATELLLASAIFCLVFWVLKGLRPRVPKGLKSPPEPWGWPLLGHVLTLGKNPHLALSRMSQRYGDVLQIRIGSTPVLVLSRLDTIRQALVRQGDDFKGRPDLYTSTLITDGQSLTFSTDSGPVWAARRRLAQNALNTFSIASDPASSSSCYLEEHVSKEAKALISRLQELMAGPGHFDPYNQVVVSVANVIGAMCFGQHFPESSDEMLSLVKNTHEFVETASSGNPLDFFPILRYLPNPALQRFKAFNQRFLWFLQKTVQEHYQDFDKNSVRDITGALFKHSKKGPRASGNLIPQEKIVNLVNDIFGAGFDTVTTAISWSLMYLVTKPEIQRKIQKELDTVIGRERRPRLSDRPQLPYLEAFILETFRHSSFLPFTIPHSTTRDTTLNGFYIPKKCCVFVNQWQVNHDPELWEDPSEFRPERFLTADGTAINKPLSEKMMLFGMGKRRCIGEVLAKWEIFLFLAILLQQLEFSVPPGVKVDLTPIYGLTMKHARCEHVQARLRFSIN
Reported endpoint: pIC50
Note on pIC50: it is the negative log10 of concentration, concentration in mol/L.

Exercise: Fill in the blank: the reported pIC50 of CNC(=O)Cn1cc(-c2cc3c(N[C@@H](c4ccc5c(c4)S(=O)(=O)CCC5)C(C)C)ncnc3[nH]2)cn1 is ____.
Key: 4.36
